Values were extracted from PubChem BioAssay (NCI).

Test system: NCI/ADR-RES ovarian
test: NCI-60 one-dose screen, 48 h (100 = growth as untreated, 0 = no growth, -100 = all killed)
setup_conditions: 10 µM unless noted
This is part of a sample that, as a whole, favours compounds with a hit. Of some 83,000 tested, about 20% had one in any assay.
In this section, each of the molecules is paired with its reported growth.
Write the number in % without appending the unit.

Solved cases below.
response.value for "CCOP(=O)(OCC)/C(=C\N1C(=O)CC(=O)NC1=S)C(=O)OC" (field: growth) = 104

Documented growth of "O=C(c1ccccc1O)N1CCCC1" : 101

Record O=C(OCC1CCCO1)c1ccc([N+](=O)[O-])cc1 (configuration not stated) . Reported growth: 103

For record "CC(=O)N(C)N=Nc1ccc(C)cc1" the listed growth is 99.1

Notebook: "O=S(=O)(O)c1ccc(O)c(C2CCCCC2)c1" , growth read as 118

New cases:
Form: molecule = "COC(=O)c1cccc([N+](=O)[O-])c1" ; growth = 102

Lab note: measured growth of "CCNC(=O)OCCc1c2ccccc2nc2ccccc12" was 119
